Origin of measurements: patent US9884806B2

Target: BRD4_2 (Homo sapiens, UniProt O60885)
Construct: contains two tandem bromodomains (BrD1 and BrD2)
Test: Fluorescence anisotropy binding assay (competition with FITC-labeled MS417 probe), BRD4_2
Details: FITC-MS417 probe 80 nM, PBS pH 7.4, 1 hour, 25° C.
Parameter Measured: IC50

Prompt: Tell me the measured IC50 of CC1=C(Nc2cc(NC(=O)c3ccccc3C)ccc2Cl)CCCC1=O , please.
Response: 1 to 10 µM

Prompt: Tell me the measured IC50 of CC1=C(Nc2ccc(C(=O)Nc3cccc4ccccc34)c(Cl)c2)CCC1=O , please.
Response: > 10 µM

Others:
Prompt: Tell me the measured IC50 of CC1=C(Nc2cc(S(N)(=O)=O)ccc2Cl)CCC1=O , please.
Response: 1 to 10 µM

Prompt: Tell me the measured IC50 of CC1=C(Nc2cc(NC(=O)c3ccccc3C)ccc2Cl)CCC1=O , please.
Response: < 1 µM

Prompt: Tell me the measured IC50 of CC1=C(Nc2cc(NS(=O)(=O)c3ccccc3Cl)ccc2Cl)CCC1=O , please.
Response: < 1 µM

Prompt: Tell me the measured IC50 of COc1ccc(NC(=O)Cc2ccc(NC3=C(C)C(=O)CCC3)cc2)cc1 , please.
Response: 1 to 10 µM

Prompt: Tell me the measured IC50 of CC1=C(Nc2cccc(N)c2Cl)CCCC1=O , please.
Response: > 10 µM

Prompt: Tell me the measured IC50 of CC1=C(Nc2ccc(C(=O)Nc3ccccc3C)cc2Cl)CCCC1=O , please.
Response: 1 to 10 µM

Prompt: Tell me the measured IC50 of CC1=C(Nc2ccc(C(=O)O)cc2Br)CCC1=O , please.
Response: > 10 µM

Prompt: Tell me the measured IC50 of CC1=C(Nc2ccc(C(=O)O)cc2F)CCC1=O , please.
Response: > 10 µM

Prompt: Tell me the measured IC50 of CC1=C(Nc2ccc(C(=O)Nc3ccccc3C)c(Cl)c2)CCC1=O , please.
Response: > 10 µM

Prompt: Tell me the measured IC50 of CC1=C(Nc2ccc(C(N)=O)cc2)CCCC1=O , please.
Response: 1 to 10 µM

Prompt: Tell me the measured IC50 of COc1cc(NC2=C(C)C(=O)CC2)ccc1C(=O)Nc1ccccc1C , please.
Response: 1 to 10 µM

Prompt: Tell me the measured IC50 of NC(=O)c1ccc(NC2=CC(=O)CC2)cc1 , please.
Response: 1 to 10 µM

Prompt: Tell me the measured IC50 of Cc1ccccc1NC(=O)c1ccc(Cl)c(NC2=C(C#N)C(=O)CCC2)c1 , please.
Response: > 10 µM

Prompt: Tell me the measured IC50 of CC1=C(Nc2cccc(NC(=O)C3CCCCC3)c2Cl)CCCC1=O , please.
Response: > 10 µM

Prompt: Tell me the measured IC50 of CC1=C(Nc2ccc(NC(=O)/C=C\C(=O)O)cc2Cl)CCCC1=O , please.
Response: > 10 µM

Prompt: Tell me the measured IC50 of COc1ccc(NC(=O)c2ccc(NC3=C(C)C(=O)CC3)cc2)cc1 , please.
Response: 1 to 10 µM
